# credit: paper PMC11290850

Test system: intracellular amastigotes of Trypanosoma cruzi Tulahuen transfected with β-galactosidase strain
Assay: In vitro trypanocidal activity, β-galactosidase-expressing T. cruzi in L929 fibroblasts
Type: cell-based
Conditions: CC50 (L929)/IC50 (T. cruzi Tulahuen)
Reported values of Selectivity index (SI) for individual entries

{"STRUCTURE AS SMILES": "COc1ccc(COCc2cn(-c3cc(C(F)(F)F)ccc3N3CCOCC3)nn2)cc1", "MODIFIER SIGN": ">", "Selectivity index (SI)": 3.0}
{"STRUCTURE AS SMILES": "FC(F)(F)c1ccc(N2CCOCC2)c(-n2cc(COCc3ccc(Cl)cc3)nn2)c1", "MODIFIER SIGN": "=", "Selectivity index (SI)": 15.7}
{"STRUCTURE AS SMILES": "FC(F)(F)c1ccc(N2CCCCC2)c(-n2cc(COCc3ccc(Br)cc3)nn2)c1", "MODIFIER SIGN": ">", "Selectivity index (SI)": 69}
{"STRUCTURE AS SMILES": "FC(F)(F)c1ccc(N2CCOCC2)c(-n2cc(COCc3ccccc3)nn2)c1", "MODIFIER SIGN": "=", "Selectivity index (SI)": 125.2}
{"STRUCTURE AS SMILES": "FC(F)(F)c1ccc(N2CCOCC2)c(-n2cc(COCc3ccc(Br)cc3)nn2)c1", "MODIFIER SIGN": "=", "Selectivity index (SI)": 23.5}

* * *

Parameter CC50 at 96 h: see the listing below.
Test: Cytotoxicity on L929 cells (alamarBlue)
Format: cell-based
Conditions: mouse, L929 fibroblasts (infected with T. cruzi), 96-hour exposure, value in brackets
MEASURED QUANTITY: CC50 at 96 h

{"COMPOUND": "FC(F)(F)c1ccc(N2CCOCC2)c(-n2cc(COCc3ccccc3)nn2)c1 [Compound 6E]", "EXPERIMENTAL RESULT": "160 µM"}
{"COMPOUND": "FC(F)(F)c1ccc(N2CCCCC2)c(-n2cc(COCc3ccccc3)nn2)c1 [Compound 6J]", "EXPERIMENTAL RESULT": "> 48 µM"}
{"COMPOUND": "FC(F)(F)c1ccc(N2CCOCC2)c(-n2cc(COCc3ccc(Cl)cc3)nn2)c1 [Compound 6B]", "EXPERIMENTAL RESULT": "79 µM"}
{"COMPOUND": "FC(F)(F)c1ccc(N2CCCCC2)c(-n2cc(COCc3ccc(Cl)cc3)nn2)c1 [Compound 6G]", "EXPERIMENTAL RESULT": "> 355 µM"}
{"COMPOUND": "COc1ccc(COCc2cn(-c3cc(C(F)(F)F)ccc3N3CCCCC3)nn2)cc1 [Compound 6K]", "EXPERIMENTAL RESULT": "> 45 µM"}
{"COMPOUND": "FC(F)(F)c1ccc(N2CCCCC2)c(-n2cc(COCc3ccc(Br)cc3)nn2)c1 [Compound 6H]", "EXPERIMENTAL RESULT": "> 323 µM"}
{"COMPOUND": "COc1ccc(COCc2cn(-c3cc(C(F)(F)F)ccc3N3CCOCC3)nn2)cc1 [Compound 6D]", "EXPERIMENTAL RESULT": "> 47.6 µM"}
{"COMPOUND": "FC(F)(F)c1ccc(N2CCOCC2)c(-n2cc(COCc3ccc(Br)cc3)nn2)c1 [Compound 6C]", "EXPERIMENTAL RESULT": "161 µM"}

* * *

Experiment: Cytotoxicity on L929 cells (alamarBlue)
Assay type: cell-based
Settings: mouse, L929 fibroblasts (infected with T. cruzi), 96-hour exposure, top concentration limited by solubility (20 to 160 µg/mL)
Here, each record is paired with measured CC50 at 96 h data.
MEASURED QUANTITY: CC50 at 96 h

{"COMPOUND": "FC(F)(F)c1ccc(N2CCCCC2)c(-n2cc(COCc3ccc(Cl)cc3)nn2)c1 [Compound 6G]", "MEASURED QUANTITY": "CC50 at 96 h", "EXPERIMENTAL RESULT": "> 160 µg/mL"}
{"COMPOUND": "COc1ccc(COCc2cn(-c3cc(C(F)(F)F)ccc3N3CCOCC3)nn2)cc1 [Compound 6D]", "MEASURED QUANTITY": "CC50 at 96 h", "EXPERIMENTAL RESULT": "> 20 µg/mL"}
{"COMPOUND": "FC(F)(F)c1ccc(N2CCOCC2)c(-n2cc(COCc3ccc(Cl)cc3)nn2)c1 [Compound 6B]", "MEASURED QUANTITY": "CC50 at 96 h", "EXPERIMENTAL RESULT": "36.1 µg/mL"}
{"COMPOUND": "COc1ccc(COCc2cn(-c3cc(C(F)(F)F)ccc3N3CCCCC3)nn2)cc1 [Compound 6K]", "MEASURED QUANTITY": "CC50 at 96 h", "EXPERIMENTAL RESULT": "> 20 µg/mL"}
{"COMPOUND": "FC(F)(F)c1ccc(N2CCOCC2)c(-n2cc(COCc3ccc(Br)cc3)nn2)c1 [Compound 6C]", "MEASURED QUANTITY": "CC50 at 96 h", "EXPERIMENTAL RESULT": "80 µg/mL"}
{"COMPOUND": "FC(F)(F)c1ccc(N2CCCCC2)c(-n2cc(COCc3ccccc3)nn2)c1 [Compound 6J]", "MEASURED QUANTITY": "CC50 at 96 h", "EXPERIMENTAL RESULT": "> 20 µg/mL"}
{"COMPOUND": "FC(F)(F)c1ccc(N2CCOCC2)c(-n2cc(COCc3ccccc3)nn2)c1 [Compound 6E]", "MEASURED QUANTITY": "CC50 at 96 h", "EXPERIMENTAL RESULT": "62.6 µg/mL"}
{"COMPOUND": "FC(F)(F)c1ccc(N2CCCCC2)c(-n2cc(COCc3ccc(Br)cc3)nn2)c1 [Compound 6H]", "MEASURED QUANTITY": "CC50 at 96 h", "EXPERIMENTAL RESULT": "> 160 µg/mL"}
{"COMPOUND": "O=C(Cn1ccnc1[N+](=O)[O-])NCc1ccccc1 [Benznidazole, reference compound]", "MEASURED QUANTITY": "CC50 at 96 h", "EXPERIMENTAL RESULT": "625 µg/mL"}
